Target: Acetylcholinesterase (Electrophorus electricus)
Sequence (O42275 whole entry): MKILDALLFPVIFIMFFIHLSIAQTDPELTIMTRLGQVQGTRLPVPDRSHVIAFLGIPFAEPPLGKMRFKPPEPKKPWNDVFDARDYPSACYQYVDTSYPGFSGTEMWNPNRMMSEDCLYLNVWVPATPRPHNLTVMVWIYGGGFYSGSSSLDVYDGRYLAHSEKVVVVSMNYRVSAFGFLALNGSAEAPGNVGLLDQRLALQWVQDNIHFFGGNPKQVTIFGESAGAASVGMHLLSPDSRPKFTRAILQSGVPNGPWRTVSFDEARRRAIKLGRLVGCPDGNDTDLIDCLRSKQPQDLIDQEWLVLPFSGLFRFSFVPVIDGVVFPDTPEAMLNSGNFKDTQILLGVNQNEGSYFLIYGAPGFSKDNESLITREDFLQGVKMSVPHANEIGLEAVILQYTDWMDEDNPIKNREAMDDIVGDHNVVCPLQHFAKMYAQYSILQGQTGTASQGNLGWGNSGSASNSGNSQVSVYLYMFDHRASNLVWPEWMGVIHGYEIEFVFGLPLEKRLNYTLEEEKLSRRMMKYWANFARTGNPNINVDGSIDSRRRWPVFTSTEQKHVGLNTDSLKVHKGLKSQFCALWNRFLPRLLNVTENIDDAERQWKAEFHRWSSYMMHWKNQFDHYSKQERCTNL
pKi: −log10 of the molar value.
Recorded pKi, one value per entry.

| smiles-entry | pKi |
| --- | --- |
| C=CCN1CC[C@@]23CCCC[C@@H]2[C@@H]1Cc1ccc(O)cc13 | 4.70 |
| CN1CC[C@@]23CCCC[C@@H]2[C@@H]1Cc1ccc(O)cc13 | 4.70 |
| CN1CC[C@]23CCCC[C@H]2[C@H]1Cc1ccc(O)cc13 | 4.60 |
| C=CCN1CC[C@]23CCCC[C@H]2[C@H]1Cc1ccc(O)cc13 | 4.92 |

* * *

Biological target: Delta-type opioid receptor (Rattus norvegicus, UniProt P33533)
Sequence (P33533 whole entry): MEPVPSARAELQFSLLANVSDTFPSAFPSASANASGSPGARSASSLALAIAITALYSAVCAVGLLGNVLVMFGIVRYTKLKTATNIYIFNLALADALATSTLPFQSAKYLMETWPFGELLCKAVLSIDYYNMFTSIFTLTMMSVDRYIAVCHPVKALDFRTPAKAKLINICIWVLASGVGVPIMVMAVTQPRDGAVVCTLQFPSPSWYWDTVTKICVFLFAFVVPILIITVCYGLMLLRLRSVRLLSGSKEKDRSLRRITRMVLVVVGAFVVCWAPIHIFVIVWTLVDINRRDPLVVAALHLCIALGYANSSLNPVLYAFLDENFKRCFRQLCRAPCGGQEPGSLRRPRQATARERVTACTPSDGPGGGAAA
Experiment: Displacement of [3H][Ile5,6]deltorphin2 from delta opioid receptor in rat brain membrane
Property: Ki; scope: individual molecules

| molecule | result-unit | reading-qualifier | Ki |
| --- | --- | --- | --- |
| C=CCN1CC[C@]23CC(=O)CC[C@H]2[C@H]1Cc1cccc(OC)c13 | nM | = | 217 |
| COc1cccc2c1[C@]13CCN(C)[C@H](C2)[C@]1(OC)CCC(=O)C3 | nM | = | 101 |
| O=CN1CC[C@]23CC(=O)CC[C@H]2[C@H]1Cc1c(O)ccc(O)c13 | nM | = | 1250 |
| C=CCN1CC[C@]23CC(=O)CC[C@@]2(OC)[C@H]1Cc1cccc(OC)c13 | nM | = | 210 |
| O=CN1CC[C@]23CC(=O)CC[C@H]2[C@H]1CC1C(=O)C=CC(=O)C13 (stereo not given in full) | nM | = | 12.2 |
| CCO[C@@]12CCC(=O)[C@]3(C)Oc4c(O)ccc5c4[C@@]31CCN(C)[C@@H]2C5 | nM | = | 4.8 |
| COC1CCC2C(Cc3cccc(O)c3)=NCCC2C1 (stereo not given) | nM | > | 10000 |
| O=CN1CC[C@]23c4c5cccc4O[C@H]2C(=O)CC[C@H]3[C@H]1C5 | nM | > | 10000 |
| CCO[C@@]12CCC(=O)C[C@@]13CCN(C)[C@@H]2Cc1cccc(O)c13 | nM | = | 316 |
| COC1=CCC2=C(CCNC2Cc2ccccc2O)C1 (stereo not given) | nM | > | 10000 |
